The reported numbers originate from ChEMBL document CHEMBL3526057.

molecular target: CYP2C19.19 (CYP2C19 variant) (Homo sapiens, UniProt P33261, S51G); assay: Activity of human recombinant CYP2C19.19 mutant expressed in Saccharomyces cerevisiae BJ5457 assessed asomeprazole 5'-hydroxylation after 60 mins; type: ADME; conditions: probe omeprazole (5'-hydroxylation)
measuredEndpoint: Km at 1 h (µM)

[[record]]
compound = "COc1ccc2[nH]c([S+]([O-])Cc3ncc(C)c(OC)c3C)nc2c1 (stereo unspecified)"
number = 14.5

